# System: OE33
# METHOD SUMMARY: MTT cytotoxicity, OE33 (oesophagus)
# Format: cell-based, human
# ASSAY CONDITIONS: MTT test, 72 hrs
ENDPOINT NAME: pIC50
On this scale, pIC50 is minus log10 of a concentration expressed in M (mol/L).

# pIC50 (molecule: N.N.[Cl][Pt][Cl] [CDDP, cis-diamminodichloro platinum(II)] ) is 5.16

Note to self: pIC50 recorded for F[P-](F)(F)(F)(F)F.OC[P+](CO)(CO)[Cu-3]([P+](CO)(CO)CO)([P+](CO)(CO)CO)[P+](CO)(CO)CO [CP, [Cu(thp)4][PF6]] was 5.73

* * *

# Test system: HCT-116
# METHOD SUMMARY: MTT cytotoxicity, HCT-116 (colon)
# Type: cell-based, human
# ASSAY CONDITIONS: MTT test, 72 hrs
ENDPOINT NAME: pIC50
In simple prose, pIC50 is minus the logarithm base ten of a concentration in moles per litre.

Form field pIC50, entry O=C1[O][Pt]2([NH][C@@H]3CCCC[C@H]3[NH]2)[O]C1=O : 6.12

Sure, the documented pIC50 for F[P-](F)(F)(F)(F)F.OC[P+](CO)(CO)[Cu-3]([P+](CO)(CO)CO)([P+](CO)(CO)CO)[P+](CO)(CO)CO [CP, [Cu(thp)4][PF6]] is 6.34

Lab note: N.N.[Cl][Pt][Cl] [CDDP, cis-diamminodichloro platinum(II)] gave pIC50 of 5.08

* * *

# Tested on: human lung (MRC-5) fibroblasts
# METHOD SUMMARY: Cytotoxicity towards human non-tumor cells, MRC-5
# Type: cell-based
# ASSAY CONDITIONS: MRC-5 human lung fibroblasts (non-tumor); MTT test, 72 hrs
Could you please report measured IC50 for the items listed next?
Give just the number in µM; leave the unit off.

IC50 recorded for this compound, O=C1[O][Pt]2([NH][C@@H]3CCCC[C@H]3[NH]2)[O]C1=O , is 23.1

Sure, the documented IC50 for F[P-](F)(F)(F)(F)F.OC[P+](CO)(CO)[Cu-3]([P+](CO)(CO)CO)([P+](CO)(CO)CO)[P+](CO)(CO)CO [CP, [Cu(thp)4][PF6]] is 33

Reported IC50 ( N.N.[Cl][Pt][Cl] [CDDP, cis-diamminodichloro platinum(II)] ) = 19.2

* * *

# Tested on: human ovarian adenocarcinoma cells resistant (A2780cisR) to CDDP
# METHOD SUMMARY: Cross resistance MTT test, A2780cisR (CDDP resistant)
# Format: cell-based
# ASSAY CONDITIONS: A2780cisR (CDDP resistant); MTT test, 72 h, probit analysis
ENDPOINT NAME: pIC50
Schema: pIC50 number; meaning minus log10 of the concentration expressed in molar units.

Short answer on human ovarian adenocarcinoma cells resistant (A2780cisR) to CDDP for F[P-](F)(F)(F)(F)F.OC[P+](CO)(CO)[Cu-3]([P+](CO)(CO)CO)([P+](CO)(CO)CO)[P+](CO)(CO)CO [CP, [Cu(thp)4][PF6]] , pIC50: 5.68

// pIC50 (human ovarian adenocarcinoma cells resistant (A2780cisR) to CDDP) for N.N.[Cl][Pt][Cl] [CDDP, cis-diamminodichloro platinum(II)] = 4.88
